- experimentalProtocol: UV-Vis absorption and fluorescence spectroscopy (spectral properties in aqueous media / PBS buffer)
- Assay type: physicochemical
- statedConditions: aqueous media; emission maximum
measure: λem (nm)
Reply with just the number (in nm).

Examples with their reported λem (nm) follow.
[
  {
    "entrySmiles": "C#Cc1cccc(Nc2ncnc3ccc(NC(=O)CCNC(=O)c4ccc(C(=O)[O-])c(-c5c6ccc(=[N+](C)C)cc-6oc6cc(N(C)C)ccc56)c4)cc23)c1",
    "measuredNumber": 587
  },
  {
    "entrySmiles": "CN(C)c1ccc2c(c1)[Si](C)(C)C1=CC(=[N+](C)C)C=CC1=C2c1ccccc1C(=O)O",
    "measuredNumber": 662
  },
  {
    "entrySmiles": "Cc1cc(C(=O)NCCOCCOCCCCCCCl)ccc1-c1c2cc/c(=[N+](/C)CCCS(=O)(=O)[O-])cc-2oc2cc(N(C)C)ccc12",
    "measuredNumber": 581
  },
  {
    "entrySmiles": "Cc1ccccc1-c1c2cc/c(=[N+](/C)CCCS(=O)(=O)[O-])cc-2oc2cc(N(C)C)ccc12",
    "measuredNumber": 575
  },
  {
    "entrySmiles": "C#Cc1cccc(Nc2ncnc3ccc(NC(=O)CCNC(=O)c4ccc(-c5c6cc/c(=[N+](/C)CCCS(=O)(=O)[O-])cc-6oc6cc(N(C)C)ccc56)c(C)c4)cc23)c1",
    "measuredNumber": 583
  }
]

Lab note: next compound to report on.
Please report the recorded λem (nm) for C#Cc1cccc(Nc2ncnc3ccc(NC(=O)CCNC(=O)c4ccc(C5=C6C=C/C(=[N+](/C)CCCS(=O)(=O)[O-])C=C6[Si](C)(C)c6cc(N(C)C)ccc65)c(C)c4)cc23)c1 .
673

###

- experimentalProtocol: UV-Vis absorption and fluorescence spectroscopy (spectral properties in aqueous media / PBS buffer)
- Assay type: physicochemical
- statedConditions: aqueous media; emission maximum
- Protocol: UV-Vis and fluorescence spectra were collected on a SpectraMax M5 spectrometer with a Microplate reader (Molecular Devices, Sunnyvale, CA). All absorbance spectra were reference corrected. Extinction coefficient was calculated from Beer’s Law plots of absorbance versus concentration. Relative quantum yields are reported using TMR and SiTMR as reference.
measure: λem (nm)

[
  {
    "entrySmiles": "CN(C)c1ccc2c(-c3ccccc3C(=O)[O-])c3ccc(=[N+](C)C)cc-3oc2c1",
    "result": "574 nm"
  }
]

Please report the recorded λem (nm) for CN(C)c1ccc2c(-c3cc(C(=O)O)ccc3C(=O)[O-])c3ccc(=[N+](C)C)cc-3oc2c1 .
576 nm

Field entry: Cc1cc(C(=O)[O-])ccc1C1=C2C=C/C(=[N+](/C)CCCS(=O)(=O)O)C=C2[Si](C)(C)c2cc(N(C)C)ccc21
672 nm

Field entry: CN(C)c1ccc2c(-c3cc(C(=O)NCc4ccc(COc5nc(N)nc6[nH]cnc56)cc4)ccc3C(=O)[O-])c3ccc(=[N+](C)C)cc-3oc2c1
577 nm

Field entry: CN(C)c1ccc2c(c1)[Si](C)(C)C1=CC(=[N+](C)C)C=CC1=C2c1cc(C(=O)NCCCn2cc(-c3cccc(Nc4ncnc5ccccc45)c3)nn2)ccc1C(=O)[O-]
670 nm

Field entry: CN(C)c1ccc2c(-c3cc(C(=O)NCCCn4cc(-c5cccc(Nc6ncnc7ccccc67)c5)nn4)ccc3C(=O)[O-])c3ccc(=[N+](C)C)cc-3oc2c1
585 nm

Field entry: Cc1cc(C(=O)NCCCn2cc(-c3cccc(Nc4ncnc5ccccc45)c3)nn2)ccc1-c1c2cc/c(=[N+](/C)CCCS(=O)(=O)[O-])cc-2oc2cc(N(C)C)ccc12
585 nm
